Each record here notes measured KD ratio to GLS3000.
# STUDY_TARGET: T1, CD3 epsilon homodimer protein (UniProt P07766 23-126)
# T1 construct: also called CD3 (CD3 epsilon)
# T1 sequence (P07766 23-126): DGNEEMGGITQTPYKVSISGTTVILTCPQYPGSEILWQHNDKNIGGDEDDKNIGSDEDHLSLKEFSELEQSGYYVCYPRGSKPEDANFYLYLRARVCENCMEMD
# PROCEDURE_DETAILS: SPR, antibody over immobilised CD3e homodimer;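 note: SPR at 25 °C with CD3 epsilon homodimer amine-coupled to a CM4 sensor chip and antibody flowed over as analyte in HBS-EP+ running buffer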

{"columns": ["BINDER", "READOUT_KIND", "VALUE"],
 "data": [
  ["CE115HA000/GLS3000 N30A (antibody, IgG1, name in Kabat numbering, V domains shown, one-arm IgG1) VH: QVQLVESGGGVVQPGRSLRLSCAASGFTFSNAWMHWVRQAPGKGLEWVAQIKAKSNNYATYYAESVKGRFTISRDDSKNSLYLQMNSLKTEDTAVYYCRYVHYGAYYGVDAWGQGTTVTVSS VL: DIVMTQSPLSLPVTPGEPASISCRSSQSLVHSNRATYLHWYQQKPGQAPRLLIYKVSNRFSGVPDRFSGSGSGTDFTLKISRVEAEDVGVYYCGQGTQVPYTFGQGTKLEIK", "KD ratio to GLS3000", 1.16]
]}

Query :: Which KD ratio to GLS3000 is reported for this binder? CE115HA000/GLS3000 F55I (antibody, IgG1, name in Kabat numbering, V domains shown, one-arm IgG1) VH: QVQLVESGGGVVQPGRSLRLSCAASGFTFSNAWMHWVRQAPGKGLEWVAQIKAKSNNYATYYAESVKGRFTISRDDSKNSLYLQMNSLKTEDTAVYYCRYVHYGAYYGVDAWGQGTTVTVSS VL: DIVMTQSPLSLPVTPGEPASISCRSSQSLVHSNRNTYLHWYQQKPGQAPRLLIYKVSNRISGVPDRFSGSGSGTDFTLKISRVEAEDVGVYYCGQGTQVPYTFGQGTKLEIK
Result :: 1.28

Query :: Same lookup for CE115HA000/GLS3000 H27dR (antibody, IgG1, name in Kabat numbering, V domains shown, one-arm IgG1) VH: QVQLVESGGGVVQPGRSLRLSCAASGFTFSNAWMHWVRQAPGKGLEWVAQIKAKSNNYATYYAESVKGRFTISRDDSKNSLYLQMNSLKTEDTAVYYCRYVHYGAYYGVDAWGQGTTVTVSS VL: DIVMTQSPLSLPVTPGEPASISCRSSQSLVRSNRNTYLHWYQQKPGQAPRLLIYKVSNRFSGVPDRFSGSGSGTDFTLKISRVEAEDVGVYYCGQGTQVPYTFGQGTKLEIK , please.
Result :: 2.35

Query :: What would you report for CE115HA000/GLS3000 R29D (antibody, IgG1, name in Kabat numbering, V domains shown, one-arm IgG1) VH: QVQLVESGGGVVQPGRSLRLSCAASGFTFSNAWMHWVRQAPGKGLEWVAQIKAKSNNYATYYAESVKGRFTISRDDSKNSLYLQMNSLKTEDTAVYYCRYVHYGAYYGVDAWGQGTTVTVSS VL: DIVMTQSPLSLPVTPGEPASISCRSSQSLVHSNDNTYLHWYQQKPGQAPRLLIYKVSNRFSGVPDRFSGSGSGTDFTLKISRVEAEDVGVYYCGQGTQVPYTFGQGTKLEIK ?
Result :: 1.58

Query :: And then CE115HA000/GLS3000 L33V (antibody, IgG1, name in Kabat numbering, V domains shown, one-arm IgG1) VH: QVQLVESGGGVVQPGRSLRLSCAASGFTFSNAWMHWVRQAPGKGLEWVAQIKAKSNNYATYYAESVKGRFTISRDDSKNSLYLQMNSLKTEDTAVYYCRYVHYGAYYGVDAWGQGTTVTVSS VL: DIVMTQSPLSLPVTPGEPASISCRSSQSLVHSNRNTYVHWYQQKPGQAPRLLIYKVSNRFSGVPDRFSGSGSGTDFTLKISRVEAEDVGVYYCGQGTQVPYTFGQGTKLEIK , what is it?
Result :: 1.26
